target: ZntR (Salmonella enterica sv. Typhimurium …, UniProt A0A0H3NSQ7 1-141); experiment: fluorescence anisotropy; apo, 5 mM EDTA; 10 nM probe, 60 mM NaCl, 240 mM KCl, 10 mM HEPES pH 7.0, anaerobic; temperature not stated; details: protein: recombinant; chain copies: 2; label: 5' HEX on strand 1; blunt
reported property: pKd
Scale note: pKd = -log10(concentration in M).

q: Tell me measured pKd for zntAPro (dsDNA) DNA 1: CTTGACTCTGGAGTCGACTCCAGAGTGTATCCTC DNA 2: GAGGATACACTCTGGAGTCGACTCCAGAGTCAAG please.
a: 5.96
